Test system: coronary blood flow
TEST NAME: Coronary blood flow-increasing effect in anesthetized dogs (administration into the coronary artery)
Format: in vivo
APPLIED CONDITIONS: 30 μg/dog into the coronary artery, anesthetized beagle dogs
ENDPOINT LABEL: duration (T1/2), half-time in which the effect is reduced to half (min)
Report only the number, with the unit min understood.

Incoming: Can you share its duration (T1/2), half-time in which the effect is reduced to half? I mean this compound: CC(C)(C)O/N=C(/c1cccc([N+](=O)[O-])c1)c1ncccc1O
Outgoing: 5.3

Incoming: Can you share its duration (T1/2), half-time in which the effect is reduced to half? I mean this compound: CC(C)(C)O/N=C(/c1ccc(Cl)c(Cl)c1)c1c(O)ccc[n+]1[O-]
Outgoing: 30.5

Incoming: Can you share its duration (T1/2), half-time in which the effect is reduced to half? I mean this compound: CC(C)(C)O/N=C(/c1ccc(F)c(Br)c1)c1ncccc1O
Outgoing: 43.5

Incoming: Can you share its duration (T1/2), half-time in which the effect is reduced to half? I mean this compound: CC(C)(C)N/N=C(\c1cccc(Br)c1)c1ncccc1O
Outgoing: 74.6

Incoming: Can you share its duration (T1/2), half-time in which the effect is reduced to half? I mean this compound: CC(C)(C)O/N=C(/c1ccc(Cl)cc1)c1c(O)ccc[n+]1[O-]
Outgoing: 18.6

Incoming: Can you share its duration (T1/2), half-time in which the effect is reduced to half? I mean this compound: CC(C)(C)O/N=C(/c1cccc(Br)c1)c1ncccc1O
Outgoing: 6.7

Incoming: Can you share its duration (T1/2), half-time in which the effect is reduced to half? I mean this compound: CC(C)(C)O/N=C(/c1cccc(Br)c1)c1c(O)ccc[n+]1[O-]
Outgoing: 24.4

Where do these numbers come from? They come from patent US5891895A.
